target or system: CD28 (human) (UniProt P10747)
measurement description: flow cytometry, Jurkat cells (CD28); MFI over CD80 WT IgV-Fc
reported endpoint: Fold change to WT CD80 (fold)

# example entries with known answers
[
  {
    "binder": "variant CD80 IgV-Fc (inert) H18F/A26P/E35D/M47I/V68M/A71G/D90G (Fc fusion) VIHVTKEVKEVATLSCGFNVSVEELPQTRIYWQKDKKMVLTMMSGDINIWPEYKNRTIFDITNNLSIMILGLRPSDEGTYECVVLKYEKGAFKREHLAEVTLSVKAD",
    "scale unit": "fold",
    "Fold change to WT CD80": 47.1
  },
  {
    "binder": "CD80 E35D/D46V/M47L/V68M/L85Q/E88D IgV-Fc, (EAAAK)3 linker (Fc fusion) VIHVTKEVKEVATLSCGHNVSVEELAQTRIYWQKDKKMVLTMMSGVLNIWPEYKNRTIFDITNNLSIMILALRPSDEGTYECVVQKYDKDAFKREHLAEVTLSVKADEAAAKEAAAKEAAAK",
    "scale unit": "fold",
    "Fold change to WT CD80": 3.5
  },
  {
    "binder": "variant CD80 IgV-Fc (inert) H18V/A26Q/E35D/M47V/V68L/A71G/D90G (Fc fusion) VIHVTKEVKEVATLSCGVNVSVEELQQTRIYWQKDKKMVLTMMSGDVNIWPEYKNRTIFDITNNLSILILGLRPSDEGTYECVVLKYEKGAFKREHLAEVTLSVKAD",
    "scale unit": "fold",
    "Fold change to WT CD80": 30.6
  }
]

[1] CD80 E35D/D46V/M47L/V68M/L85Q/E88D IgV-Fc, EAAAK linker (Fc fusion) VIHVTKEVKEVATLSCGHNVSVEELAQTRIYWQKDKKMVLTMMSGVLNIWPEYKNRTIFDITNNLSIMILALRPSDEGTYECVVQKYDKDAFKREHLAEVTLSVKADEAAAK
[2] variant CD80 IgV-Fc (inert) H18Y/A26P/E35D/M47I/V68M/A71G (Fc fusion) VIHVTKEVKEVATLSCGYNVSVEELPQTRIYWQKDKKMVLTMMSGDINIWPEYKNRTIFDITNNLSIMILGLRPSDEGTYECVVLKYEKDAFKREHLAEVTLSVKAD
Response body: label of entry with the larger Fold change to WT CD80; valid values 1 , 2 . State your choice using its label.
2
(2: 50.2 fold, 1: 10.1 fold)
